system: PRKACA-PRKAR2A interaction (SmBiT-PRKACA / LgBiT-PRKAR2A), protein kinase A; set-up: NanoLuc complementation counter-screen in cell extract, PRKACA with PRKAR2A, loss of luminescence, detects NanoLuc interference; settings: counter-screen for NanoLuc interference; 0.5 h, 20 µM; inhibitor
Recorded Endpoint: Inh (PKA) (%)
Write the value in % as a bare number.

What value of Inh (PKA) has been recorded for this entry: `COc1ccc(C[C@H](NC(=O)[C@H](C)NC(=O)CN2CCOCC2)C(=O)N[C@@H](Cc2ccccc2)C(=O)[C@@]2(C)CO2)cc1`
2.946

What value of Inh (PKA) has been recorded for this entry: `Nc1nccc(Oc2ccc(NC(=O)c3c[nH]cc(-c4ccc(F)cc4)c3=O)cc2F)c1Cl`
54.88

What value of Inh (PKA) has been recorded for this entry: O=c1[nH]c2ccccc2n1C1CCN(CCCC(c2ccc(F)cc2)c2ccc(F)cc2)CC1 [UM0118378:03, Pimozide]
11.2

What value of Inh (PKA) has been recorded for this entry: `NC[C@H]1CC[C@H](C(=O)O)CC1`
2.588
